System: non-mutant kinases
Format: binding
CONDITION SET: 50 nM; non-mutant kinases with % Ctrl <1
QUANTITY MEASURED: number of individual kinase hits, S(1)
# answer = number (no unit)

Prompt line: Can you share its number of individual kinase hits, S(1)? I mean this compound: COc1c(NC(=O)Nc2ccc(Oc3ccnc(Nc4ccccc4)c3)c3ccccc23)cc(C(C)(C)C)cc1C(=O)NC1COC1 [Example 75]
Response line: 2

Prompt line: One more compound: C#Cc1cc(Nc2nccc(Oc3ccc(NC(=O)Nc4cc(C(C)(C)C)cc(NS(C)(=O)=O)c4OC)c4ccccc34)n2)cc(C(=O)NCCOCCOCCOC)c1 [Example 16]
Response line: 0

Prompt line: One more compound: COCC(=O)Nc1cc(Oc2ccc(NC(=O)Nc3cc(C(C)(C)C)nn3-c3ccc(C)cc3)c3ccccc23)ccn1 [Reference Compound, reference compound]
Response line: 7

Prompt line: One more compound: COCCOCCOCCNC(=O)c1cc(Nc2cc(Oc3ccc(NC(=O)Nc4cc(C(C)(C)C)cc(NS(C)(=O)=O)c4OC)c4ccccc34)ccn2)cc(OC)c1 [Example 3]
Response line: 0

Just for reference, patent US9481648B2 is where these values come from.
